# measured-on: Rap guanine nucleotide exchange factor 3 (Homo sapiens)
# measurement-description: Validation qHTS for agonist of cAMP-regulated guanine nucleotide exchange factor 3 (EPAC1); also: % is scaled to controls: 0 for no effect and ±100 for the full control effect; nearly all actives have a fitted effect of over 70% in size
# run-conditions: EPAC1 Rap1b BODIPY-GDP exchange, fluorescence; active compounds read high, percent of cAMP control response
Hit rate of the full screen: of about 16,000 compounds, about 160 (1%) were called active. Roughly 8% stayed inconclusive and do not appear here. For the sample, actives were picked, then their nearest neighbours and some compounds at random.
measured-parameter: max response (%)
Write down the numeric answer in % and omit the unit.

{"compound": "Cc1csc(-c2nc3ccccc3n2C)n1", "max response (%)": 8.44}
{"compound": "O=C(c1cc2ccccc2o1)N1CCN(Cc2ccccc2)CC1", "max response (%)": -2.2}

// query max response value for entry Cc1cc[n+](C2CCCCC2)cc1 -16.9

Another: CC1CC2C3CCC4=CC(=O)C=C[C@]4(C)[C@@]3(F)[C@@H](O)C[C@]2(C)[C@@]1(O)C(=O)CO (stereo partly specified) 3.48

For CC(C)NC(=O)N1CCC2(CC1)CCN(C(=O)c1cccn1C)CC2 then? -49.6

Also COc1ccccc1CNc1ncncc1-c1cccnc1 ? -29.8

Ok, now COc1cc(=O)n2c(c1C(=O)NC(C)c1ccco1)CCN(C(=O)c1cn3ccc(C)cc3n1)CC2 (stereo unspecified) -8.43
